# measurement-description: Viability qHTS for spleen associated tyrosine kinase inhibitor (SYKi) naive MV4-11 cells (AID 1963823); also: nearly all actives have a fitted effect of over 40% in size; also: potency is read from the fitted curve at half-maximal effect
# condition-label: MV4-11 AML viability, CellTiter-Glo luminescence, 72 h; series mostly up to 45 µM
# Experimental: Department of Medicine, Hematology/Oncology University Hospital Frankfurt, Germany. Trials have shown promising clinical activity of the selective SYK inhibitor entospletinib in patients with high expressing HOXA9/MEIS1 acute leukemias. […] 7; Detection; Luminescence; ViewLux plate reader (PerkinElmer). […] 1. Quantitative high-throughput screening (qHTS) of small molecule compounds was conducted on naive SYKi MV4-11 cell line. […] 7. Luminescence was measured on a ViewLux plate reader (PerkinElmer).
Results filed as inconclusive are left out. The source made the active and inactive calls. Calls follow the shape of the dose curve; as a rule, active = well fitted cell-killing curve with a large enough effect; inconclusive = small, poorly fitted or top-dose-only effect, or effect the other way; inactive = no such curve, though single readings can be large or run the other way.
observed-property: Potency

Prompt: Need Potency of "N#C/C(=C\c1ccc(O)c(O)c1)C(=O)NCCCc1ccccc1" , thanks.
Completion: 8.2 µM (active)

Prompt: Need Potency of CN1C(=O)CC(C)(c2ccccc2)C1=O (centres undefined) , thanks.
Completion: inactive

Prompt: Need Potency of "OC[C@H](Cc1ccccc1)Nc1nc(Oc2ccc3c(c2)CCC3)nc2c1ncn2Cc1ccc(-c2ccccc2)cc1" , thanks.
Completion: 13.2 µM (active)

Prompt: Need Potency of CC(C)=CCC[C@@](C)(O)[C@H]1CC[C@]2(C)[C@@H]1[C@H](O)CC1[C@@]3(C)CC[C@H](O[C@@H]4O[C@H](CO)[C@@H](O)[C@H](O)[C@H]4O[C@@H]4O[C@H](CO)[C@@H](O)[C@H](O)[C@H]4O)C(C)(C)[C@@H]3CC[C@]12C (some centres undefined) , thanks.
Completion: inactive
